protocol notes: gradient 5% acetonitrile 3 min, to 50% in 2 min, to 85% in 15 min, held 3 min, 100 µL/min
assay context: column: Zorbax Extend-C18 2.1 x 50 mm; eluents: water / acetonitrile, 0.1% formic acid
Entry class follows RP-LC retention time: range 1: < 700 s; range 2: ≥ 700 s and < 800 s; range 3: ≥ 800 s

Answered examples (10):
compound	assigned label
COCCNC(=O)C1CCN(c2nc3ccc(-c4ccccc4F)nc3s2)CC1	range 3
COc1ccc(S(=O)(=O)N2CCc3c(c(-c4nnc(-c5ccccc5F)o4)nn3C)C2)cc1	range 3
CCOc1ccc(S(=O)(=O)N2CCCC(C(=O)Nc3cccc(C)c3)C2)cc1 (stereo unspecified)	range 3
CCOC(=O)c1c(C)[nH]c(C(=O)N2CCCC(C(=O)NC3CCCC3)C2)c1C (stereo unspecified)	range 2
Cn1cc(CCNC(=O)Nc2ccccc2Br)c2cccnc21	range 2
O=C(c1cccs1)N1CCN(c2cnn3c(C4CC4)nnc3c2)CC1	range 1
CCCOc1ccnc2c1c(=O)n(CC(=O)Nc1cc(C)on1)c(=O)n2C	range 1
CC12CC(NC(=O)N1c1cccc(C(=O)NCc3cccnc3)c1)c1cc(Br)ccc1O2 (stereo unspecified)	range 1
CCNc1cc(N2CCCC(CCC(=O)N3CCN(C(=O)c4ccco4)CC3)C2)ncn1 (stereo unspecified)	range 1
C/C=C(/C)C(=O)O[C@H]1CC(C)=CC(=O)[C@@]2(C)CC[C@@](O)(C(C)C)[C@H]12	range 2

Q) Classify this compound: "CCCNC(=O)N(C1CCOCC1)C1CCN(C(=O)Nc2cccc(C)c2C)CC1"
A) range 2

Q) Classify this compound: "NS(=O)(=O)c1ccc(CCNC(=O)C2CN(c3nc4c(F)cccc4s3)C2)cc1"
A) range 1

Q) Classify this compound: "O=C(NCc1ccccc1Cl)c1nnc(-c2ccc(S(=O)(=O)N3CCCCC3)cc2)o1"
A) range 3

Q) Classify this compound: "Cc1cc(N2CCC(C)CC2)n2nc(CN3CCN(c4ccccn4)CC3)nc2n1"
A) range 1

Q) Classify this compound: CC1CCCN(S(=O)(=O)c2ccc(-c3nnc(C(C)C)o3)o2)C1 (stereo unspecified)
A) range 3

Q) Classify this compound: "O=C(NCC#CCN1CCc2ccccc2C1)c1ccc2cc[nH]c2c1"
A) range 1

----------
Overview of reported RP-LC retention time across a group of compounds:
protocol notes: gradient 5% acetonitrile 3 min, to 50% in 2 min, to 85% in 15 min, held 3 min, 100 µL/min
assay context: column: Zorbax Extend-C18 2.1 x 50 mm; eluents: water / acetonitrile, 0.1% formic acid

# annotated cases, reported RP-LC retention time shown
CC(C)c1noc(-c2ccnc(-n3cnc(C(=O)NC4CCCC4)c3)c2)n1 693 s
Cc1cc(F)ccc1NS(=O)(=O)c1cc2n(c1)CCN(C(C)C)C2=O 773 s
O=C(N[C@@H]1CN(Cc2ccc(Cl)cc2F)CC[C@@H]1CO)C1CC1 598 s

Moving on to another compound below.
Q) Reported RP-LC retention time, compound "CC(=O)Nc1ccc(-c2nc3ccccc3s2)cc1" : ____
A) 799 s

----------
Overview of reported RP-LC retention time across a group of molecules:
protocol notes: gradient 5% acetonitrile 3 min, to 50% in 2 min, to 85% in 15 min, held 3 min, 100 µL/min
assay context: column: Zorbax Extend-C18 2.1 x 50 mm; eluents: water / acetonitrile, 0.1% formic acid
Write it as a number; the unit s goes unstated.

# annotated cases, reported RP-LC retention time shown
molecule	reported property	obs value
Cc1ccc(Nc2c(-c3cccc(O)c3)nc3cnccn23)cc1Br	RP-LC retention time	834
Cn1c(C2CCN(C(=O)Nc3ccccc3C(F)(F)F)CC2)cc(=O)n2nccc12	RP-LC retention time	654
Cc1cc(C)c(C(=O)N2CCC(CC(=O)NCCCN3CCN(C)CC3)CC2)[nH]1	RP-LC retention time	566
Cc1cc(C)cc(S(=O)(=O)N2CCC3(CC2)NCCN=C3NCc2cccc(F)c2)c1	RP-LC retention time	772
COc1ccccc1-c1nc(Cn2nnc(-c3nc(-c4cccc(F)c4)no3)c2C)c(C)o1	RP-LC retention time	1130

Moving on to another molecule below.
Q) Reported RP-LC retention time, molecule "Cc1nn2c(CNC(=O)c3cccc(Br)c3)c(C)nc2s1" : ____
A) 662

----------
protocol notes: gradient 5% acetonitrile 3 min, to 50% in 2 min, to 85% in 15 min, held 3 min, 100 µL/min
assay context: column: Zorbax Extend-C18 2.1 x 50 mm; eluents: water / acetonitrile, 0.1% formic acid
reported property: RP-LC retention time (s)
Write it as a number; the unit s goes unstated.

compound	result units	RP-LC retention time
COC(=O)C1=C(C)NC2=C(C(=O)CC(C)(C)C2)C1c1cc(OC)c(OC)c(OC)c1 (stereo not drawn)	s	684
Cc1cc(Br)ccc1NC(=O)Cn1cnc2c(nc3n2CCCCC3)c1=O	s	711

Moving on to another compound below.
Q) Reported RP-LC retention time, compound COc1ccc(CC(=O)N2CC(c3nc(C)no3)C3(CCOCC3)C2)cc1 (stereo not drawn) : ____
A) 712

----------
Overview of reported RP-LC retention time across a group of compounds:
protocol notes: gradient 5% acetonitrile 3 min, to 50% in 2 min, to 85% in 15 min, held 3 min, 100 µL/min
assay context: column: Zorbax Extend-C18 2.1 x 50 mm; eluents: water / acetonitrile, 0.1% formic acid

# annotated cases, reported RP-LC retention time shown
Cn1cc(C(=O)NC2CCN(Cc3ccccc3)CC2)c2cccnc21 594 s
CCc1ccc(Nc2nc(C(=O)NCCc3cnc[nH]3)nc3ccccc23)cc1 603 s

Q) Reported RP-LC retention time, compound "CCc1nccn1Cc1nc(-c2ccc(OC)c(OC)c2)no1" : ____
A) 618 s

----------
Overview of reported RP-LC retention time across a group of molecules:
protocol notes: gradient 5% acetonitrile 3 min, to 50% in 2 min, to 85% in 15 min, held 3 min, 100 µL/min
assay context: column: Zorbax Extend-C18 2.1 x 50 mm; eluents: water / acetonitrile, 0.1% formic acid
Write it as a number; the unit s goes unstated.

# annotated cases, reported RP-LC retention time shown
molecule	result units	RP-LC retention time
COc1ccc(C(=O)N2CCC3(CC2)NC(=O)c2cccc(Cl)c2N3)cc1	s	738
CN(CCc1noc(-c2ccc(C(=O)N3CCCCC3)cc2)n1)C(=O)C1CC1	s	742

Q) Reported RP-LC retention time, molecule "CSc1cccc(NC(=O)N2CCc3nc(-c4ccccc4)ncc3C2)c1" : ____
A) 955

Q) Reported RP-LC retention time, molecule CC(=O)N1c2ccc(S(=O)(=O)N3CCCC3)cc2CC1C(=O)NCCCc1ccccc1 (stereo not given) : ____
A) 868

Q) Reported RP-LC retention time, molecule "Cc1ccc(CC(=O)Nc2ccc3c(c2)CCC(=O)N3)cc1" : ____
A) 708

----------
protocol notes: gradient 5% acetonitrile 3 min, to 50% in 2 min, to 85% in 15 min, held 3 min, 100 µL/min
assay context: column: Zorbax Extend-C18 2.1 x 50 mm; eluents: water / acetonitrile, 0.1% formic acid
Cut-off 800 s on RP-LC retention time: below means condition met, at or above means condition not met.

Answered examples (10):
compound	assigned label
N#CCCSc1ccccc1NC(=O)c1ccc(S(=O)(=O)N2CCCCCC2)cc1	condition not met
COc1ccc(Cl)cc1S(=O)(=O)N1CCC(C(=O)NCc2cccnc2)CC1	condition met
Cc1ccc(C(=O)N2[C@H]3CC[C@@H]2c2cnc(-c4ccc(F)cc4)nc2C3)cn1	condition met
O=C(Cc1csc2nc(-c3cccc(Br)c3)cn12)N1CCN(c2ccccc2)CC1	condition not met
COc1ccc(-n2c(=O)c(C(=O)NCc3ccco3)c(O)c3cccnc32)cc1	condition not met
CCc1nn2c(CNC(=O)c3ccc(F)cc3)c(-c3ccccc3)nc2s1	condition not met
Cc1noc(C2CN(CCc3ccccc3)CC23CCCC3)n1 (centres undefined)	condition met
CCc1noc(NC(C)=O)c1-c1ccc(OC)c(S(=O)(=O)Nc2cc(Cl)ccc2C)c1	condition not met
COC(=O)c1cccc(NC(=O)N2C[C@@H]3C[C@H](NC(=O)c4ccccc4)[C@H]2C3)c1	condition not met
O=C(NCCc1cccs1)C1CCN(C(=O)c2ncn3c2COC(c2ccc(F)cc2)C3)CC1 (centres undefined)	condition met

Q) Strictly below 800 s: is that where RP-LC retention time of CCOc1ccc(C(C)NC(=O)C2c3ccccc3CCN2C(=O)C2CC2)cc1 (centres undefined) sits?
A) condition not met

Q) Strictly below 800 s: is that where RP-LC retention time of O=C1OC2CC1N(C(=O)Cn1c(=O)oc3ccccc31)C2 (centres undefined) sits?
A) condition met

----------
protocol notes: gradient 5% acetonitrile 3 min, to 50% in 2 min, to 85% in 15 min, held 3 min, 100 µL/min
assay context: column: Zorbax Extend-C18 2.1 x 50 mm; eluents: water / acetonitrile, 0.1% formic acid
Cut-off 800 s on RP-LC retention time: below means 1.0, at or above means 0.0.

compound	assigned label
O=C1NC2CCCCC2NC1CC(=O)N1CCN(C(c2ccccc2)c2ccccc2)CC1 (stereo unspecified)	1.0

Q) Strictly below 800 s: is that where RP-LC retention time of "O=C(Cc1ccccc1Br)N1CCN(c2cc(-c3cccs3)[nH]n2)CC1" sits?
A) 0.0

Q) Strictly below 800 s: is that where RP-LC retention time of "Cc1ccc(Nc2c(-c3ccc(N(C)C)cc3)nc3cnccn23)cc1Br" sits?
A) 0.0

Q) Strictly below 800 s: is that where RP-LC retention time of O=C1CC(c2noc(-c3cccc(OC(F)(F)F)c3)n2)CN1c1ccc(F)c(Cl)c1 (stereo unspecified) sits?
A) 0.0

Q) Strictly below 800 s: is that where RP-LC retention time of "Cc1sc(-c2ccn[nH]2)cc1NC(=O)c1cccc(N(C)C)c1" sits?
A) 0.0

Q) Strictly below 800 s: is that where RP-LC retention time of CCn1nc(C)c(-c2cc(C(=O)NCC34CCC=C3N(C)C(=O)CC4)no2)c1C (stereo unspecified) sits?
A) 1.0

Q) Strictly below 800 s: is that where RP-LC retention time of "O=C(Nc1ccc2c(c1)CN(C(=O)c1ccco1)CC2)c1cnccn1" sits?
A) 1.0
